test system: mice; test: Mouse Jump Physical Dependence Assay; assay type: in vivo; conditions: mice; Naloxone 100 mg/kg on day 4; 30 minutes
ATTRIBUTE_MEASURED: number of mice jumping / withdrawal symptoms (in words)

- COMPOUND: "CC[C@@H](C)N1CC[C@]23c4c5ccc(O)c4O[C@H]2[C@@H](O)C=C[C@H]3[C@H]1C5 [7(R), N-2-butylnormorphine]"
  SUBJECT_OF_TEST: "mice"
  RESULT: "very small"
- COMPOUND: "C=CCN1CC[C@]23c4c5ccc(O)c4O[C@H]2[C@@H](O)C=C[C@H]3[C@H]1C5 [Nalorphine, N-allylnormorphine, reference compound]"
  SUBJECT_OF_TEST: "mice"
  RESULT: "very small"
- COMPOUND: "CC[C@H](C)N1CC[C@]23c4c5ccc(O)c4O[C@H]2[C@@H](O)C=C[C@H]3[C@H]1C5 [7(S), N-2-butylnormorphine]"
  SUBJECT_OF_TEST: "mice"
  RESULT: "very small"
- COMPOUND: "CC(C1CC1)N1CC[C@]23c4c5ccc(O)c4O[C@H]2[C@@H](O)C=C[C@H]3[C@H]1C5 (some centres unmarked)"
  SUBJECT_OF_TEST: "mice"
  RESULT: "very small"

====

tested on: mice; test: Straub Tail Antagonist Assay (morphine-injected mice); assay type: in vivo, mouse; conditions: Mus musculus; mice injected with morphine; dose which abolishes the response in 50% of the test mice; read-out: Inhibition of Straub tail response (ED50)

- MOLECULE: "CCC(CC)N1CC[C@]23c4c5ccc(O)c4O[C@H]2[C@@H](O)C=C[C@H]3[C@H]1C5"
  UNIT_ABBREVIATION: "µmol/kg"
  ED50: 17.2
- MOLECULE: "CC[C@@H](C)N1CC[C@]23c4c5ccc(O)c4O[C@H]2[C@@H](O)C=C[C@H]3[C@H]1C5 [7(R), N-2-butylnormorphine]"
  UNIT_ABBREVIATION: "µmol/kg"
  ED50: 16.2
- MOLECULE: "CC(C1CC1)N1CC[C@]23c4c5ccc(O)c4O[C@H]2[C@@H](O)C=C[C@H]3[C@H]1C5 (stereo partly drawn)"
  UNIT_ABBREVIATION: "µmol/kg"
  ED50: 4.5
- MOLECULE: "C=CCN1CC[C@]23c4c5ccc(O)c4O[C@H]2[C@@H](O)C=C[C@H]3[C@H]1C5 [Nalorphine, N-allylnormorphine, reference compound]"
  UNIT_ABBREVIATION: "µmol/kg"
  ED50: 1
- MOLECULE: "CC[C@H](C)N1CC[C@]23c4c5ccc(O)c4O[C@H]2[C@@H](O)C=C[C@H]3[C@H]1C5 [7(S), N-2-butylnormorphine]"
  UNIT_ABBREVIATION: "µmol/kg"
  ED50: 7.4
- MOLECULE: "C=C[C@@H](C)N1CC[C@]23c4c5ccc(O)c4O[C@H]2[C@@H](O)C=C[C@H]3[C@H]1C5 [8(R), N-α-methylallylnormorphine]"
  UNIT_ABBREVIATION: "µmol/kg"
  ED50: 11

====

Listing: Total Number Mice Affected (Jumped) of selected molecules
test system: mice; assay: Mouse Jump Physical Dependence Assay; assay type: in vivo; conditions: i.p.; 8-100 mg/kg day 1, 100 mg/kg days 2 and 3, 100 mg/kg Naloxone day 4; 30 min; mice tested: 7(S) 20, 7(R) 12, 9 10, Morphine 10, Nalline 12

- MOLECULE: "CC[C@H](C)N1CC[C@]23c4c5ccc(O)c4O[C@H]2[C@@H](O)C=C[C@H]3[C@H]1C5 [7(S), N-2-butylnormorphine]"
  SUBJECT_OF_TEST: "mice"
  Total Number Mice Affected (Jumped): 2
- MOLECULE: "CC(C1CC1)N1CC[C@]23c4c5ccc(O)c4O[C@H]2[C@@H](O)C=C[C@H]3[C@H]1C5 (some centres unmarked)"
  SUBJECT_OF_TEST: "mice"
  Total Number Mice Affected (Jumped): 1
- MOLECULE: "CN1CC[C@]23c4c5ccc(O)c4O[C@H]2[C@@H](O)C=C[C@H]3[C@H]1C5"
  SUBJECT_OF_TEST: "mice"
  Total Number Mice Affected (Jumped): 10
- MOLECULE: "CC[C@@H](C)N1CC[C@]23c4c5ccc(O)c4O[C@H]2[C@@H](O)C=C[C@H]3[C@H]1C5 [7(R), N-2-butylnormorphine]"
  SUBJECT_OF_TEST: "mice"
  Total Number Mice Affected (Jumped): 1
